# Test system: Aspergillus flavus
# Protocol notes: Antifungal activity against Aspergillus flavus after 48 hr by microdilution method
# Assay type: functional
MIC strictly under 20 µg/mL means True; at 20 µg/mL or over means False.

Lab note: MIC threshold 20 µg/mL. Does this compound come in strictly under it? CCc1ccc(CCOc2ccc(C3=NOC(CO)C3)cc2)nc1 (stereo not drawn)
True

Lab note: MIC threshold 20 µg/mL. Does this compound come in strictly under it? CCc1ccc(CCOc2ccc(C3=NOC(Cc4ccc5c(c4)OCO5)C3)cc2)nc1 (stereo not drawn)
False

Lab note: MIC threshold 20 µg/mL. Does this compound come in strictly under it? CCc1ccc(CCOc2ccc(C3=NOC(Cc4ccc(OC)c(OC)c4)C3)cc2)nc1 (stereo not drawn)
True

Lab note: MIC threshold 20 µg/mL. Does this compound come in strictly under it? CCc1ccc(CCOc2ccc(C3=NOC(c4ccccc4)C3)cc2)nc1 (stereo not drawn)
False

Lab note: MIC threshold 20 µg/mL. Does this compound come in strictly under it? CCc1ccc(CCOc2ccc(C3=NOC(C(=O)OC)C3)cc2)nc1 (stereo not drawn)
False

Lab note: MIC threshold 20 µg/mL. Does this compound come in strictly under it? CCc1ccc(CCOc2ccc(C3=NOC(Cc4ccc(O)c(OC)c4)C3)cc2)nc1 (stereo not drawn)
True

Lab note: MIC threshold 20 µg/mL. Does this compound come in strictly under it? CCc1ccc(CCOc2ccc(C3=NOC(C#N)C3)cc2)nc1 (stereo not drawn)
False

Lab note: MIC threshold 20 µg/mL. Does this compound come in strictly under it? CCOC(=O)C1CC(c2ccc(OCCc3ccc(CC)cn3)cc2)=NO1 (stereo not drawn)
True
